System: Human RSV-A (“Long” strain)
Assay: RSV in vitro cytoprotection assay (CPE, ATPlite) in HEp-2 cells
Format: cell-based
Conditions: human respiratory syncytial virus, 96 h; HEp-2 cells, 4-day incubation, ATPlite readout; read-out: Human RSV-A (“Long” strain) EC50
Listed here: items and their measured EC50.

Cc1cccc(F)c1NC(=O)c1cc2c(s1)-c1ccc(F)cc1N(C(=O)c1ccc(NC(=O)c3cc4ccccc4nc3N3CC4(CCOCC4)C3)cc1)CC2 [Example 14] | < 10 nM

Ask: What measured EC50 goes with O=C(Nc1c(F)cccc1F)c1cc2c(s1)-c1ccc(Cl)cc1N(C(=O)c1ccc(NC(=O)c3cccnc3N3CC4(CCOCC4)C3)cc1)CC2 [Example 83] ?
Reply: < 10 nM

Ask: Field entry: O=C(Nc1c(F)cccc1Cl)c1cc2c(o1)-c1ccc(F)cc1N(C(=O)c1ccc(NC(=O)c3cc4c(nc3N3CC5(CCOCC5)C3)CCCC4)cc1)CC2 [Example 238]
Reply: 10 to 50 nM

---

Listed here: items and their measured EC50.
Test system: Human RSV-A (“Long” strain)
Assay: RSV in vitro cytoprotection assay (CPE, ATPlite) in HEp-2 cells
Format: cell-based
Conditions: human respiratory syncytial virus, 96 h; HEp-2 cells, 4-day incubation, ATPlite readout; read-out: Human RSV-A (“Long” strain) EC50

Examples from the recorded data:
O=C(Nc1c(F)cc(F)cc1Cl)c1cc2c(s1)-c1ccc(F)cc1N(C(=O)c1ccc(NC(=O)c3cc(C(F)(F)F)cnc3N3CC4(CCOCC4)C3)cc1)CC2 | 10 to 50 nM
O=C(Nc1ccc(C(=O)N2CCc3c(sc(C(=O)Nc4c(F)cc(F)cc4F)c3F)-c3ccccc32)cc1)c1cccnc1N1CC2(CCOCC2)C1 | < 10 nM
O=C(Nc1c(F)cccc1F)c1cc2c(s1)-c1ccc(F)cc1N(C(=O)c1ccc(NC(=O)c3cccnc3-c3ccncc3)cc1)CC2 | > 50 nM
Cc1cnc(N2CC3(CCOCC3)C2)c(C(=O)Nc2ccc(C(=O)N3CCc4cc(C(=O)NC5CCNC5)sc4-c4ccc(F)cc43)cc2)c1 (stereo not drawn) | > 50 nM
Cc1cnc(N2CC3(CCOCC3)C2)c(C(=O)Nc2ccc(C(=O)N3CCc4cc(-c5ccncc5)sc4-c4ccc(F)cc43)cc2)c1 | < 10 nM

Here's the next entry for you.
Ask: What measured EC50 goes with Cc1cnc(N2CC3(CCOCC3)C2)c(C(=O)Nc2ccc(C(=O)N3CCc4cc(-c5ccc[nH]c5=O)sc4-c4ccc(F)cc43)cc2)c1 ?
Reply: < 10 nM

---

Tested on: Human RSV-A (“Long” strain)
Assay: RSV in vitro cytoprotection assay (CPE, ATPlite) in HEp-2 cells
Format: cell-based
Details: human respiratory syncytial virus, 96 h; HEp-2 cells, 4-day incubation, ATPlite readout; read-out: Human RSV-A (“Long” strain) EC50
Listed here: items and their measured EC50.

Examples from the recorded data:
O=C(Nc1c(F)cc(F)cc1Cl)c1nc2c(s1)-c1ccccc1N(C(=O)c1ccc(NC(=O)c3cccnc3N3CC4(CCOCC4)C3)cc1)CC2 | 10 to 50 nM
Cc1cnc(N2CC3(CCOCC3)C2)c(C(=O)Nc2ccc(C(=O)N3CCc4cc(-c5ccncc5F)sc4-c4ccc(F)cc43)cc2)c1 | < 10 nM
O=C(Nc1c(F)cccc1F)c1cc2c(s1)-c1ccc(F)cc1N(C(=O)c1ccc(NC(=O)c3cccnc3N3CC4CCCC4C3)cc1)CC2 (stereo not drawn) | 10 to 50 nM
O=C(Nc1c(F)cc(F)cc1Cl)c1cc2c(s1)-c1ccc(F)cc1N(C(=O)c1ccc(NC(=O)c3cc4ccccc4nc3N3C4CCC3COC4)cc1)CC2 | > 50 nM

Ask: What measured EC50 goes with Cc1cnc(N2CC3(CCOCC3)C2)c(C(=O)Nc2ccc(C(=O)N3CCc4c(sc(C(=O)Nc5ncncc5F)c4F)-c4ccccc43)cc2)c1 ?
Reply: < 10 nM

Ask: Field entry: O=C(Nc1c(F)cccc1F)c1cc2c(s1)-c1ccc(F)cc1N(C(=O)c1ccc(NC(=O)c3cccnc3N3CCCC(F)(F)CC3)cc1)CC2
Reply: > 50 nM

Ask: Field entry: Cc1cnc(N2CC3(CCOCC3)C2)c(C(=O)Nc2ccc(C(=O)N3CCc4cc(C(=O)NC5CCS(=O)(=O)CC5)sc4-c4ccc(F)cc43)cc2)c1
Reply: > 50 nM

Ask: Field entry: Cc1cnc(N2CC3(CCOCC3)C2)c(C(=O)Nc2ccc(C(=O)N3CCc4cc(NS(=O)(=O)c5c(F)cccc5F)sc4-c4ccccc43)cc2)c1
Reply: > 50 nM

Ask: Field entry: O=C(Nc1c(F)cc(F)cc1F)c1cc2c(s1)-c1ccc(F)cc1N(C(=O)c1ccc(NC(=O)c3cccnc3N3CC4(CCOCC4)C3)cc1)CC2
Reply: < 10 nM
